- Target under test: T1, human NMI (N-myc Interacting protein) (human, UniProt Q13287 1-307, limits assumed)
- T1 construct: Immunogen and ELISA coating antigen; also called hNMI; antigen 1
- T1 sequence (looked up): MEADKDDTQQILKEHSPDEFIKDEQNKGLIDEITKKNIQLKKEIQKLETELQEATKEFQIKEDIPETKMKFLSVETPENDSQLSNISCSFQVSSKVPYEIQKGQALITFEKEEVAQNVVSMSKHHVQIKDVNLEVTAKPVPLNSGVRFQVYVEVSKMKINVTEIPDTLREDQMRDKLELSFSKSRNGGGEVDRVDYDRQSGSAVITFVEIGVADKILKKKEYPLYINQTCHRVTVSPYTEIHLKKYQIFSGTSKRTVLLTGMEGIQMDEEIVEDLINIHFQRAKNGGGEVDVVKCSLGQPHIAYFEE
- Experimental details: I-ELISA, hNMI coated 1 ug/mL; antibody 2.4414063 ng/mL
Test readout: OD450

[[record]]
binder = "240B10-1 (antibody, V domains shown, Rabbit monoclonal antibody; also called 240B10-1-biotin (biotin-labelled form)) VH: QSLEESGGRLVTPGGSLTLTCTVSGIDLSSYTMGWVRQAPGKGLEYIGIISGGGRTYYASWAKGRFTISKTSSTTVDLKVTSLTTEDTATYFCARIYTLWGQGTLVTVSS VL: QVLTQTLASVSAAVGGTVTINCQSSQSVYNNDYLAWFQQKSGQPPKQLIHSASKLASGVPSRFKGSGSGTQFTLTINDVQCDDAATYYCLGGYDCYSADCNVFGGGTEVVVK"
result = "0.105 OD450"

